Values were extracted from PubChem BioAssay (NCI).

Each entry below lists one item and its recorded TGI value.
Test system: RPMI-8226 leukemia
EXPERIMENT: NCI tumour cell line growth inhibition, 48 h

Some solved entries appear below for comparison.
[
  {
    "MOLECULE": "CN(C)C=Nc1cccc2nsnc12",
    "VALUE KIND": "TGI",
    "MEAS VALUE": "> 100 µM"
  },
  {
    "MOLECULE": "O=C(/C=C/c1ccc([N+](=O)[O-])o1)N1CCN(Cc2ccccc2)CC1",
    "VALUE KIND": "TGI",
    "MEAS VALUE": "32.3 µM"
  },
  {
    "MOLECULE": "COC(=O)Nc1nc2ccc(S(=O)(=O)NC(CC(C)C)C(=O)OC)cc2[nH]1 (stereo unspecified)",
    "VALUE KIND": "TGI",
    "MEAS VALUE": "> 100 µM"
  },
  {
    "MOLECULE": "C=CCC(N[C@H](CO)c1ccccc1)c1ccc2ccccc2n1 (stereo partly specified)",
    "VALUE KIND": "TGI",
    "MEAS VALUE": "> 100 µM"
  },
  {
    "MOLECULE": "CCOC(=O)Nc1nc2ccc(Cn3cccc3)cc2[nH]1",
    "VALUE KIND": "TGI",
    "MEAS VALUE": "> 100 µM"
  }
]

We next turn to a different molecule, shown below.
Ask: Give the measured TGI of COc1ccc([N+](=O)[O-])c2c(NCCCN(C)C)c3ccccc3nc12 .
Result: 2.17 µM
